Target: CRTH2 (Homo sapiens (Human), UniProt Q9Y5Y4)
Sequence (Q9Y5Y4 whole entry): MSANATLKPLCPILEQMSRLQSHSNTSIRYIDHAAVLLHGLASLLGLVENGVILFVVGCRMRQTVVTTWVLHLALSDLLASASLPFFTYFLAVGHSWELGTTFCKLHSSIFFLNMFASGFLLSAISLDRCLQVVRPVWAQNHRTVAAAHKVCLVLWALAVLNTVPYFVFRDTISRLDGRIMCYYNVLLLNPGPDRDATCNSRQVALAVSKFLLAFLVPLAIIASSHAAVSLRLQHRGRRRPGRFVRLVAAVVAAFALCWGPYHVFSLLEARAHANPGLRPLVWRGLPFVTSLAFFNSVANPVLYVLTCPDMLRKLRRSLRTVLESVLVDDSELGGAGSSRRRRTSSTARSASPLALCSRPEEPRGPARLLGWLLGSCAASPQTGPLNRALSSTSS
Test: CRTH2 receptor binding inhibitory activity ([3H]-PGD2 displacement, membranes of CRTH2-expressing K562 cell)
Details: CRTH2 receptor binding, [3H]-PGD2 displacement, membrane of CRTH2-expressing K562 cell; categorized AAAA/AAA; read-out: Ki
measuredQuantity: Ki

CCOCCOc1ccc(S(=O)(=O)N2C[C@@H](C)[C@@H](n3nc(CC(=O)O)c4ccccc43)C2)cc1 : < 0.1 µM
CC(C)Oc1ccc(S(=O)(=O)N2CC[C@H](n3nc(CC(=O)O)c4ccc(F)cc43)C[C@H]2CO)cc1 : 0.1 to 5 µM
CC(C)Oc1ccc(S(=O)(=O)N2C[C@H](n3nc(CC(=O)O)c4ccc(Cl)cc43)C[C@@H]2C(F)F)cc1 : 0.1 to 5 µM
CCOc1ccc(S(=O)(=O)N2C[C@@H](C)[C@@H](n3nc(CC(=O)O)c4cc5c(cc43)OCO5)C2)cn1 : < 0.1 µM
CC(C)Oc1ccc(S(=O)(=O)N2C[C@H](n3nc(CC(=O)O)c4ccc(F)cc43)C[C@@H]2COc2cccc(O)c2)cc1 : < 0.1 µM

Bench note: what Ki did CCCCOc1ccc(S(=O)(=O)N2C[C@@H](C)[C@@H](n3nc(CC(=O)O)c4ccccc43)C2)cc1 show? < 0.1 µM

What would you report for CCOc1ccc(S(=O)(=O)N2C[C@@H](C)[C@@H](n3nc(CC(=O)O)c4ccc(F)cc43)C2)nc1 ? < 0.1 µM

Repeat for the following molecule: CCOc1ccc(S(=O)(=O)N2C[C@@H](C)[C@@H](n3nc(CC(=O)O)c4ccccc43)C2)cn1 < 0.1 µM

Another molecule: CCOc1ccc(S(=O)(=O)N2C[C@H](n3c(C)c(CC(=O)O)c4ccccc43)C[C@@H]2C)cc1 0.1 to 5 µM

And then CCOc1ccc(S(=O)(=O)N2C[C@@H](C)[C@@H](n3nc(CC(=O)O)c4ccccc43)C2)nc1 , what is it? < 0.1 µM

C[C@@H]1CN(S(=O)(=O)c2ccc(C(F)(F)F)cc2)C[C@@H]1n1nc(CC(=O)O)c2ccc(F)cc21 ? < 0.1 µM

And CCOc1ccc(S(=O)(=O)N2C[C@@H](C)[C@@H](n3nc(CC(=O)O)c4ccc(C#N)cc43)C2)cn1 ? < 0.1 µM

Also check C[C@@H]1CN(S(=O)(=O)c2ccccc2Cl)C[C@@H]1n1nc(CC(=O)O)c2ccc(F)cc21 < 0.1 µM

Entry COc1ccc(S(=O)(=O)N2C[C@@H](C)[C@@H](n3nc(CC(=O)O)c4ccc(C)cc43)C2)c(F)c1 please < 0.1 µM

---

Target: Human DP1 receptor (Homo sapiens (Human))
Assay: Human DP1 inhibitory activity in DP1-expressing cell (PGD2-induced cAMP)
Type: cell-based
Conditions: category of cAMP IC50, human DP1 receptor expressing Jurkut cell
measuredQuantity: IC50

// below: answered compounds
CC(C)Oc1ccc(S(=O)(=O)N2CC[C@H](n3nc(CC(=O)O)c4ccc(F)cc43)[C@@H](C)C2)cc1 [Compound I-74] : < 100 nM
CC(C)Oc1ccc(S(=O)(=O)N2C[C@@H](C)[C@@H](n3nc(CCC(=O)O)c4ccc(F)cc43)C2)cc1 [Compound I-101] : 100 to 5000 nM
CCc1ccc(S(=O)(=O)N2C[C@@H](C)[C@@H](n3nc(CC(=O)O)c4ccccc43)C2)cc1 [Compound I-243] : < 100 nM
CCOc1ccc(S(=O)(=O)N2C[C@@H](C)[C@@H](n3nc(CC(=O)O)c4ccccc43)C2)c(-c2ccccc2)c1 [Compound I-187] : 100 to 5000 nM
Cc1ccc2c(CC(=O)O)nn([C@H]3CN(S(=O)(=O)c4ccc(OC(C)C)cc4)C[C@]3(C)O)c2c1 [Compound I-87] : 100 to 5000 nM

Which IC50 is listed for CC(C)Oc1ccc(S(=O)(=O)N2C[C@H](n3nc(CC(=O)O)c4ccc(F)cc43)C[C@@H]2c2ccccc2)cc1 [Compound I-360] ? < 100 nM

Check CC(C)Oc1ccc(S(=O)(=O)N2CC(=O)C(n3nc(CC(=O)O)c4ccc(F)cc43)C2)cc1 (stereo not drawn) [Compound I-27] too. 100 to 5000 nM

---

Target: Human DP1 receptor (Homo sapiens (Human))
Test: Human DP1 inhibitory activity in DP1-expressing cell (PGD2-induced cAMP)
Format: cell-based
Conditions: category of cAMP IC50, human DP1 receptor expressing Jurkut cell
measuredQuantity: IC50

CCOc1ccc(S(=O)(=O)N2C[C@@H](C)[C@@H](n3nc(CC(=O)O)c4ccccc43)C2)c([N+](=O)[O-])c1 [Compound I-324] : < 100 nM
CC(C)Oc1ccc(S(=O)(=O)N2C[C@H](n3nc(CC(=O)O)c4ccc(F)cc43)C[C@H]2COc2nc3ccccc3s2)cc1 [Compound I-300] : 100 to 5000 nM
CC(C)Oc1ccc(S(=O)(=O)N2C[C@@H](C)[C@@H](n3nc(CC(=O)O)c4ccccc43)C2)nc1 [Compound I-248] : 100 to 5000 nM
CC(C)Oc1ccc(S(=O)(=O)N2C[C@@H](C)[C@@H](n3nc(CC(=O)O)c4ccc(C(F)(F)F)cc43)C2)cn1 [Compound I-131] : < 100 nM
CON=C[C@@H]1CN(S(=O)(=O)c2ccc(OC(C)C)cc2)C[C@@H]1n1nc(CC(=O)O)c2ccc(F)cc21 [Compound I-65] : 100 to 5000 nM

Given the compound Cc1ccc2c(CC(=O)O)nn([C@H]3CN(S(=O)(=O)c4ccc(OC(C)C)cc4)C[C@@]3(C)F)c2c1 [Compound I-89] , what is its reported IC50? < 100 nM

---

Target: Human DP1 receptor (Homo sapiens (Human))
Assay: Human DP1 inhibitory activity in DP1-expressing cell (PGD2-induced cAMP)
Format: cell-based
Details: category of cAMP IC50, human DP1 receptor expressing Jurkut cell
measuredQuantity: IC50

Solved cases (3 shown):
CCOc1ccc(S(=O)(=O)N2C[C@H](n3nc(CC(=O)O)c4ccccc43)CC23COC3)cc1 : 100 to 5000 nM
COC[C@@H]1C[C@@H](n2nc(CC(=O)O)c3ccc(F)cc32)CN1S(=O)(=O)c1ccc(OC(C)C)cc1 : 100 to 5000 nM
CC(C)Oc1ccc(S(=O)(=O)N2C[C@H](n3nc(CC(=O)O)c4ccc(F)cc43)C[C@@H]2COCCCOc2ccccc2)cc1 : 100 to 5000 nM

If you can, please state the reported IC50 value of COc1ccc2c(c1)c(CC(=O)O)nn2[C@H]1CN(S(=O)(=O)c2ccc(OC(C)C)cc2)C[C@H]1C . < 100 nM

Consider next the molecule C[C@@H]1CN(S(=O)(=O)c2ccc(OC(F)F)cc2)C[C@@H]1n1nc(CC(=O)O)c2ccc(C(F)(F)F)cc21 in the same way. < 100 nM

Repeat for the following molecule: CC(C)Oc1ccc(S(=O)(=O)N2C[C@@H](C)[C@@H](n3nc(CC(=O)O)c4cccnc43)C2)cc1 100 to 5000 nM

What do you have for CCOc1ccc(S(=O)(=O)N2C[C@@H](C)[C@@H](n3nc(CC(=O)O)c4cc(Cl)ccc43)C2)cn1 ? < 100 nM

Lookup COc1ccc(S(=O)(=O)N2C[C@@H](C)[C@@H](n3nc(CC(=O)O)c4ccc(F)cc43)C2)cc1 < 100 nM

Another molecule to look at: CCOc1ccc(S(=O)(=O)N2C[C@@H](C)[C@@H](n3cc(CC(=O)O)c4ccc(C)cc43)C2)cc1 < 100 nM

---

# reported pIC50; entries follow
Target: Human DP1 receptor (Homo sapiens (Human), UniProt Q13258)
Sequence (Q13258 whole entry): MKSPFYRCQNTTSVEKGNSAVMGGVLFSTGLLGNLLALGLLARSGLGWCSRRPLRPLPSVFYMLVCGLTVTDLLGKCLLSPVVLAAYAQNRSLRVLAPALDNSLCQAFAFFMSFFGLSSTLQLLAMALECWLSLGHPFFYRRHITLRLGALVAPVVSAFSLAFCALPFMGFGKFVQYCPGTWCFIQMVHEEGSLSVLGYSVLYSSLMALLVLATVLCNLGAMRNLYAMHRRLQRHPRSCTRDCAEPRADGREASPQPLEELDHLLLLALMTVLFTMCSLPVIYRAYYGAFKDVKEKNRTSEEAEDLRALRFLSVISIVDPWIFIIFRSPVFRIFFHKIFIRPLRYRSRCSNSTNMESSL
Experiment: Human DP1 inhibitory activity in DP1-expressing cell (PGD2-induced cAMP)
Type: cell-based
Details: category of cAMP IC50, human DP1 receptor expressing Jurkut cell
Description: Compounds were categorized as AA (cAMP is less than 100 nM) and A (cAMP is more than 100 nM and less than 5000 nM) as shown in Table 99 and 100.
pIC50: −log10 of the molar value.

The examples below pair each entry with its known result.
CC(C)Oc1ccc(S(=O)(=O)N2C[C@H](n3nc(CC(=O)O)c4ccc(F)cc43)C[C@@H]2C(N)=O)cc1 [Compound I-3] : 5.30 to 7.00
CC(C)Oc1ccc(S(=O)(=O)N2C[C@H](n3nc(CC(=O)O)c4ccc(F)cc43)[C@@](C)(F)C2)cc1 (racemic) [Compound I-85] : > 7.00
CCOc1ccc(S(=O)(=O)N2C[C@H](n3nc(CC(=O)O)c4ccc(F)cc43)C(C)(C)C2)cc1 [Compound I-331] : > 7.00
CC(C)C1CC1S(=O)(=O)N1C[C@@H](C)[C@@H](n2nc(CC(=O)O)c3ccc(F)cc32)C1 (stereo partly shown) [Compound I-239] : 5.30 to 7.00
CC(C)Oc1ccc(S(=O)(=O)N2C[C@H](n3nc(CC(=O)O)c4ccc(F)cc43)C[C@@H]2Cc2ccccc2)cc1 [Compound I-348] : > 7.00

# pIC50 lookup, item CSC[C@H]1C[C@@H](n2nc(CC(=O)O)c3ccc(F)cc32)CN1S(=O)(=O)c1ccc(OC(C)C)cc1 [Compound I-354] > 7.00

Now this one: C=Cc1cc(OCC)ccc1S(=O)(=O)N1C[C@@H](C)[C@@H](n2nc(CC(=O)O)c3ccccc32)C1 [Compound I-276] > 7.00
